FYI, the data here is from patent US20250206732A1.

Molecular target: AsPC-1 HiBiT-KRASG12D (Homo sapiens, UniProt P01116, G12D)
Construct: insert the HiBiT tag onto the N-terminus of one or more of the endogenous KRAS alleles; endogenous in cells; host or cells: AsPC-1 (ATCC CRL-1682), CRISPR-Cas9 knock-in clone, one tagged allele
Sequence (P01116 1-188 isoform P01116-2 G12D): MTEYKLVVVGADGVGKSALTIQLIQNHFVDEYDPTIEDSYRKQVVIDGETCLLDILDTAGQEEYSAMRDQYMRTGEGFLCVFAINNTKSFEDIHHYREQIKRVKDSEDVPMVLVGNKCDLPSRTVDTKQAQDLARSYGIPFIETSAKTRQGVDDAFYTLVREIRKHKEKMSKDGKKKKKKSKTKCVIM
Assay: HiBiT degradation assay (G12D), AsPC-1 HiBiT-KRASG12D cells
Assay type: cell-based
Conditions: AsPC-1 HiBiT-KRASG12D cells, 24 hours treatment, HiBiT luminescence
measurement-type: DC50

{"line-notation": "C#Cc1c(F)ccc2cc(O)cc(-c3ncc4c(N5CC6CCC(C5)N6)nc(OC[C@@]56CCCN5[C@H](COc5cc([C@H](C(=O)N7C[C@H](O)C[C@H]7C(=O)N[C@@H](C)c7ccc(-c8scnc8C)cc7)C(C)C)on5)CC6)nc4c3F)c12", "value": "< 600 nM"}

Could you now consider this next molecule?
Query: Report DC50 for CCc1cccc2cc(O)cc(-c3ncc4c(N5CC6CCC(C5)N6)nc(OC[C@@H]5CN(CC6CN(c7cc([C@@H](C(=O)N8C[C@H](O)C[C@H]8C(=O)N[C@@H](C)c8ccc(-c9scnc9C)cc8)C(C)C)on7)C6)CCN5C)nc4c3F)c12 please.
Response: > 3000 nM

###

Biological target: AsPC-1 HiBiT-KRASG12D (Homo sapiens, UniProt P01116, G12D)
Construct: insert the HiBiT tag onto the N-terminus of one or more of the endogenous KRAS alleles; endogenous in cells; host or cells: AsPC-1 (ATCC CRL-1682), CRISPR-Cas9 knock-in clone, one tagged allele
Assay: HiBiT degradation assay (G12D), AsPC-1 HiBiT-KRASG12D cells
Type: cell-based
Conditions: AsPC-1 HiBiT-KRASG12D cells, 24 hours treatment, HiBiT luminescence
This section presents molecules with their documented DC50 values.

Use these answered entries as a reference point.
{"molecule": "Cc1ncsc1-c1ccc([C@H](C)NC(=O)[C@@H]2C[C@@H](O)CN2C(=O)[C@H](c2cc(OC[C@@H]3CC[C@]4(COc5nc(N6CC7CCC(C6)N7)c6cnc(-c7cc(O)cc(Cl)c7C7CC7)c(F)c6n5)CCCN34)no2)C(C)C)cc1", "DC50": "1000 to 3000 nM"}
{"molecule": "CCc1cccc2cccc(-c3ncc4c(N5CCCCCC5)nc(OC[C@@]56CCCN5[C@@H](COC(=O)N5CCN(c7cc([C@H](C(=O)N8C[C@H](O)C[C@H]8C(=O)N[C@@H](C)c8ccc(-c9scnc9C)cc8)C(C)C)on7)CC5)CC6)nc4c3F)c12 (relative stereo)", "DC50": "> 3000 nM"}
{"molecule": "C#Cc1c(F)ccc2cc(O)cc(-c3ncc4c(N5CC6CCC(C5)N6)nc(OCCN5CCC(CCOc6cc([C@H](C(=O)N7C[C@H](O)C[C@H]7C(=O)N[C@@H](C)c7ccc(-c8scnc8C)cc7)C(C)C)on6)CC5)nc4c3F)c12", "DC50": "< 600 nM"}

Query: Query DC50 on AsPC-1 HiBiT-KRASG12D (Homo sapiens, UniProt P01116, G12D) for C#Cc1c(F)ccc2cccc(-c3ncc4c(N5CC6CCC(C5)N6)nc(OC[C@]56CCCN5[C@H](COC(=O)N5CCN(c7cc([C@H](C(=O)N8C[C@H](O)C[C@H]8C(=O)N[C@@H](C)c8ccc(-c9scnc9C)cc8)C(C)C)on7)CC5)CC6)nc4c3F)c12
Response: < 600 nM

Query: Query DC50 on AsPC-1 HiBiT-KRASG12D (Homo sapiens, UniProt P01116, G12D) for CCc1cccc2cc(O)cc(-c3ncc4c(N5CC6CCC(C5)N6)nc(OC[C@@]56CCCN5[C@H](CN5CCN(c7cc([C@H](C(=O)N8C[C@H](O)C[C@H]8C(=O)N[C@@H](C)c8ccc(-c9scnc9C)cc8)C(C)C)on7)CC5)CC6)nc4c3F)c12
Response: < 600 nM

Query: Query DC50 on AsPC-1 HiBiT-KRASG12D (Homo sapiens, UniProt P01116, G12D) for CCc1cccc2cc(O)cc(-c3ncc4c(N5CC6CCC(C5)N6)nc(OCCN5C[C@@H]6CN(c7cc(C(C(=O)N8C[C@H](O)C[C@H]8C(=O)N[C@@H](C)c8ccc(-c9scnc9C)cc8)C(C)C)on7)C[C@@H]6C5)nc4c3F)c12 (relative stereo) [Compound 80]
Response: < 600 nM

Query: Query DC50 on AsPC-1 HiBiT-KRASG12D (Homo sapiens, UniProt P01116, G12D) for CCc1cccc2cc(O)cc(-c3ncc4c(N5CC6CCC(C5)N6)nc(OCCN5CCC(CC6CN(c7cc([C@H](C(=O)N8C[C@H](O)C[C@H]8C(=O)N[C@@H](C)c8ccc(-c9ccnn9C)cc8)C(C)C)on7)C6)CC5)nc4c3F)c12 [Compound 212]
Response: < 600 nM

Query: Query DC50 on AsPC-1 HiBiT-KRASG12D (Homo sapiens, UniProt P01116, G12D) for CCc1cccc2cc(O)cc(-c3ncc4c(N5CC6CCC(C5)N6)nc(OCCN5CCC(OC6CN(c7cc([C@H](C(=O)N8C[C@H](O)C[C@H]8C(=O)N[C@@H](C)c8ccc(-c9scnc9C)cc8)C(C)C)on7)C6)CC5)nc4c3F)c12
Response: < 600 nM
